Where these numbers come from: patent US20220017636A1

Target: T1, DPYSL4 peptide complexed with HLA-A*02:01 on T2 cells (human)
T1 construct: whole, on cells
Assay: flow cytometry, peptide-loaded T2 cells;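 further: binding of single-chain Fv antibody constructs, raised in XenoMouse, to peptide-pulsed T2 cells measured by flow cytometry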
Measured Signal/background values are reported for all entries that follow.

Example binders with recorded Signal/background:
18181-G8 (scFv, scFv in bacterial lysate, detected with anti-Flag M2) scFv: EVQLLESGGGLVQPGGSLRLSCAASGFTFSNAWMSWVRQAPGKGLEWVGRIKGNTYGGTTDYAAPVKGRFTISRDDSKNTLFLQMNSLKTEDTAVYYCTTPSNSGSYYNYFSVMDVWGQGTTVTVSSGGGGSGGGGSGGGGSELVMTQSPSSLSASVGDRVTITCRTSQSISSYLNWYQQKPGKAPKLLIYAASSLQSGVPSRFSGSGSGTDFTLTISSLQPEDFATYYCQQTYSMPFTFGGGTKVEIK :: 1.1
18089-D11 (scFv, scFv in bacterial lysate, detected with anti-Flag M2) scFv: EVQLLESGPVLVKPTQTLTLTCTFSGFSFTTHKMGVDWIRQPPGKALEWLALIYWNDDKRYNPSLQSRLTITKDTSKNQVVLTMTNMDPVDTATYYCAYRRYNWNYENWFDPWGQGTLVTVSSGGGGSGGGGSGGGGSELVMTQSPSSLSASVGDRVTITCRASQSISNYFNWYQQKPGKAPKLLIYAASSLQSGVPSRFSGSGSGTDFTLTISSLQPEDFATYYCQQSYITPFTFGGGTKLEIK :: 1.1
18179-C1 (scFv, scFv in bacterial lysate, detected with anti-Flag M2) scFv: EVQLLESGAEVKKPGASVKVSCKASGYTFTRNGLSWVRQAPGQGLEWMGWISGYNGDTNYAQKLQGRGTMTTDTSTSTAYMELRSLRSDDTAVYYCARGRATFDYWGQGTLVTVSSGGGGSGGGGSGGGGSELVMTQSPSSLSASVGDRVTITCRASQGISNYLAWYQQKPGKVPKLLISAASTLQSGVPSRFSGSGSGTDFTLTISSLQPEDVATYYCQKYNSAPFTFGPGTKVDIK :: 1

Please give the documented Signal/background of 18182-B5 (scFv, scFv in bacterial lysate, detected with anti-Flag M2) scFv: EVQLLESGGGLVQPGGSLRLSCAASGFTFSSHAMSWVRQAPGKGLEWVSAISGSGGGTYYADSVKGRFTISRDNSKNTLYLQMNSLRAEDTAVYYCATGKGVHLGFDYWGQGTLVTVSSGGGGSGGGGSGGGGSELVLTQPPSVSVAPGQTARITCGGNNIGSKSVHWYQQKPGQAPVLVVYDDNDRPSGIPERFSGSNFGNTATLIISRVEAGDEADYYCQVWDSSSDHVVFGGGTKLTVL
1

Retrieve Signal/background measured for 18182-E1 (scFv, scFv in bacterial lysate, detected with anti-Flag M2) scFv: EVQLLESGGGLVQPGGSLRLSCAASGFTFSSHAMSWVRQAPGKGLEWVSAISGSGGGTYNADSVKGRFTISRDNSKNTLYLQMNSLRAEDTAAYYCVTGKGVHLGFDYWGQGTLVTVSSGGGGSGGGGSGGGGSELVLTQPPSVSVAPGQTARITCGGNNIGSKSVHWYQQKPGQAPVMVVYDDNDRPSGIPERFSGSNSGNTATLTISRVEAGDEADYYCQVWDSSSDHVVFGGGTKLTVL and print it.
0.9

In one line, give reported Signal/background of the entry 18181-F1 (scFv, scFv in bacterial lysate, detected with anti-Flag M2) scFv: EVQLLESGGGLVKPGGSLRLSCAASGFTFSNAWMSWVRQAPGKGLEWVGRIKGNTYGGTTDYAAPVKGRFTISRDDSKNTLFLQMNSLKTEDTAVYYCTTPSYSGSYYNYFSVMDVWGQGTTVTVSSGGGGSGGGGSGGGGSELVMTQSPSSLSASVGDRVTITCRTSQSISSYLNWYQQKPGRAPKLLIFAASSLQGGVPSRFSGSGSGTDFTLTISSLQPEDFATYYCQQTYSSPFTFGPGTKLEIK .
1.1

Please look at this binder and report its Signal/background: 18089-B2 (scFv, scFv in bacterial lysate, detected with anti-Flag M2) scFv: EVQLLESGGGLVQPGGSLRLSCAASGFTFSSYAMSWVRQAPGRGLEWVSTISISGGSTNYADSVKGRFTISRDNSKNTLYLQMNSLRAEDTAVYYCAKDGGSGWFPKLLHYGLDVWGQGTTVTVSSGGGGSGGGGSGGGGSELQMTQSPSSLSASVGDRVTITCQASQDISNYLNWYQQKPGKAPKLLIYAASSLQSGVPSRFSGSGSGTDFTLTISSLQPEDFATYYCQQSYSIPLTFGGGTKVEIK
1

Output Signal/background of 18081-B9 (scFv, scFv in bacterial lysate, detected with anti-Flag M2) scFv: EVQLLESGPGLVKPSETLSLTCTVSGDSISSSRYYWGWIRQPPGKGLEWIGSIYYSGSTYYNPSLKSRVTISVDTSKNQFSLKLSSVTAADTAVYYCARGIFGVITYFDYWGQGTLVTVSSGGGGSGGGGSGGGGSELVMTQSPDSLAVSLGERATINCKSSQSVLYSSNNKNYLAWYQQKPGQPPKLLIYWASTRESGVPDRFSGSGSGTDFTLTISSLQAEDVAVYYCQQFYSTPITFGQGTRLEIK
1.1

# return recorded Signal/background for input 18181-C9 (scFv, scFv in bacterial lysate, detected with anti-Flag M2) scFv: EVQLLESGPGLVKPSQTLSLTCTVSGDSISSNPYYWSWIRQLPGKGLEWIGYISYSGSTFYNPSLKSRVTISVDTSKNQFSLNLTSVTAADTAVYYCARDRLWFGVLNYYYGMDVWGLGTTVTVSSGGGGSGGGGSGGGGSELVLTQSPLSLPVTPGEPASISCRSSQSLLHRNGYNYLDWYLQKPGQSPQLLIYLGSNRASGVPDRFSGSGSGTDFTLKISRVEAEDVGVYYCMQGLQTPFTFGPGTKVEIK
0.9

Consider the binder 18179-A7 (scFv, scFv in bacterial lysate, detected with anti-Flag M2) scFv: EVQLLESGGGLVKPGGSLRLSCAASGFTFSNAWMSWVRQAPGKGLEWVGRIKGNTYGGTTDYAAPVKGRFTISRDDSKNTLFLQMNSLKTEDTAVYYCTTPSYSGSYYNYFSVMDVWGQGTTVTVSSGGGGSGGGGSGGGGSELVMTQSPSSLSASVGDRVTITCRTSQSISSYLNWYQQKPGRAPKLLIFAASSLQGGVPSRFSGSGSGTDFTLTISSLQPEDFATYYCQQTYSMPFTFGPGTKVDIK and give its recorded Signal/background.
1
